# pIC50 values compiled below
TARGET_ENTITY: PDE3B (Homo sapiens)
Sequence (Q13370 whole entry): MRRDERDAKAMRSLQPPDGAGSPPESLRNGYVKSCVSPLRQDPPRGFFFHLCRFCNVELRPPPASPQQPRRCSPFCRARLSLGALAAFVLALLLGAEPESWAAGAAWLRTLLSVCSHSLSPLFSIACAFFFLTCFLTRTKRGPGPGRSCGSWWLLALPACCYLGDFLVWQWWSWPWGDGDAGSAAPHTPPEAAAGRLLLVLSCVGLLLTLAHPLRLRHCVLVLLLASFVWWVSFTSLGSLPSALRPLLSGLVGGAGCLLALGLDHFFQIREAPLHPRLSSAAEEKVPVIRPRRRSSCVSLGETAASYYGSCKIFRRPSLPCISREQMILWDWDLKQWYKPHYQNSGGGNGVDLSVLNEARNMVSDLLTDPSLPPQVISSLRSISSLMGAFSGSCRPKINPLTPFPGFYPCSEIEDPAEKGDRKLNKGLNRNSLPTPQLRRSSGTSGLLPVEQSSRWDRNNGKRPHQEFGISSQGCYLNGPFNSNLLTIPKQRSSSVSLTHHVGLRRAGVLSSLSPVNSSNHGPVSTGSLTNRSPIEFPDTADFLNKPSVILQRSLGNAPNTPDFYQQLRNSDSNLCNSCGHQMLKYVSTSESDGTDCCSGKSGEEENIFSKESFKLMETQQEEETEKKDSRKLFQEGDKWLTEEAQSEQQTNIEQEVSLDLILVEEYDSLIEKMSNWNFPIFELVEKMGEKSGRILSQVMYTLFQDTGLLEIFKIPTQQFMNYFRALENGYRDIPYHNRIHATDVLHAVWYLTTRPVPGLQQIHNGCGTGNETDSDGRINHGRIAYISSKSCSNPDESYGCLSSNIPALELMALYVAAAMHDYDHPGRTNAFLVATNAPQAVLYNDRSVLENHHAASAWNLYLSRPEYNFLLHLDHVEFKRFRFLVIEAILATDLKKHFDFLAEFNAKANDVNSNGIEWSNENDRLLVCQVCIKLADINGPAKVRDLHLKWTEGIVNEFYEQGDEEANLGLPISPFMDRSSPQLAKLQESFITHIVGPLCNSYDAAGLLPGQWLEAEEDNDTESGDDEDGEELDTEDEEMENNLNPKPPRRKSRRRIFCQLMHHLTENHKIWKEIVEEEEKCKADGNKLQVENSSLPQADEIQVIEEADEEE
Assay type: biochemical
CONDITION_SUMMARY: PDE3 inhibition IC50, cGMP, substrate cGMP
Notebook: values listed as pIC50 are -log10 of the concentration (mol/L).

// query Value lookup for pIC50; key = `COc1ccccc1-c1cc(-c2cccc(Br)c2)nc2nc[nH]c(=O)c12`
// result 4.97

// query Value lookup for pIC50; key = `COc1ccccc1-c1cc(-c2ccc(-c3ccc(Br)cc3)cc2)nc(N)c1C#N`
// result 4.87

// query Value lookup for pIC50; key = `COc1ccccc1-c1cc(-c2cccc(Br)c2)nc(N)c1C#N`
// result 5.40

// query Value lookup for pIC50; key = `CCOc1ccccc1-c1cc(-c2cccc(Br)c2)nc2ncnc(N)c12`
// result 4.96

Could you now look at the following molecule, please?
// query Value lookup for pIC50; key = `N#Cc1c(-c2ccccc2Cl)cc(-c2ccccc2Br)[nH]c1=O`
// result 4.98
